Kindly supply the reported protein stability index values for the records listed here.
B1: TPD52L2 (parent)
chain: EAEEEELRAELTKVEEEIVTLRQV

# Variants of: B1
# Assay overview: protein stability index of a GFP-peptide fusion (GPS, HEK-293T) (PSI 1-6); higher = more stable;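 note: lentivirally expressed fusions sorted by FACS into six bins by GFP to DsRed ratio, PSI derived from sequencing read proportions per bin multiplied by bin number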
# Condition set: c terminus: a fixed tail appended
Number only, please.

// field: protein stability index; key: V14T ; value = 4.37

E5R has a reported protein stability index of 2.89

Recorded result, Q23V , protein stability index: 3.11

Looking up A2N , I found its protein stability index recorded as 4.25

The recorded protein stability index for A2C is 3.17

// I18D : protein stability index value = 5.66

Reported protein stability index of E16W : 2.66

// field: protein stability index; key: L21M ; value = 4.72

E16N has a reported protein stability index of 3.93

Form field protein stability index, entry L7P : 5.55

R8W yielded protein stability index of 2.59

protein stability index recorded for this variant, E16D , is 4.17

In plain terms, E5T has a documented protein stability index of 2.71

In plain terms, A2R has a documented protein stability index of 3.29

The reported value for Q23M in terms of protein stability index is 3.65

protein stability index for R8Y is 3.41

Looking up E6S , I see its protein stability index listed as 3.12

Value of measured protein stability index for the entry E6M : 2.08

Briefly, protein stability index measured for V19S : 3.98

Lab note: E5F gave protein stability index of 2.34

The recorded protein stability index for V24I is 4.13

// protein stability index lookup, variant = E17W , result: 2.28

The variant listed as R22I shows protein stability index equal to 2.44

// sample T20C , its protein stability index was 3.46

The variant identified as I18R registered its protein stability index at 5.71

response.value for A9M (field: protein stability index) = 2.95

Form: variant = T12I ; protein stability index = 3.51

GET /value?item= T12W &field=protein stability index returns 2.1

Q23P has a reported protein stability index of 4.58

Input V24Y . Output protein stability index: 3.83

Kindly note the recorded protein stability index for E16V , which is 3.27

Summary for this variant, A2D : protein stability index is 4.7

Value of protein stability index reported for the variant L11I is 4.98

# protein stability index of E17S = 4.29

What the record says about E10K : protein stability index is 4.91

Given item R8D , the value recorded as its protein stability index is 4.91

Record summary for L21F : reported protein stability index = 4.09

// recorded protein stability index for R22W : 2.92

Value of measured protein stability index for the entry V14M : 4.43

The reported value for A2F in terms of protein stability index is 3.45

Reported protein stability index of L21E : 5.4

Noted for E1Q : its protein stability index reads 3.76

Noted for K13A : its protein stability index reads 3.96

Documented protein stability index of E4H : 3.21

The value of protein stability index measured for the variant E17A turned out to be 4.14

Notebook: V19K , protein stability index read as 3.89

// protein stability index value for V19P : 5.45

The recorded protein stability index for E1V is 3.58

Entry E16Y — recorded protein stability index = 1.82

Measured protein stability index, L11A : 5.8

response.value for I18W (field: protein stability index) = 5.09

Sample T20W ; protein stability index observed: 2.99

variant E4L , protein stability index observed: 3.81

// sample V14L , its protein stability index was 3.82

Record E6Q . Reported protein stability index: 3.46

Form field protein stability index, entry Q23R : 3.73

The measured protein stability index associated with L11Q reads 5.67

Reported protein stability index ( T20E ) = 3.84

Per the record, E15P has protein stability index of 5.04

For V14H the variant record lists protein stability index as 5.7

Recorded result, V14P , protein stability index: 5.75

So for E1W , the logged protein stability index turned out to be 2.01

response.value for I18G (field: protein stability index) = 5.67

Record summary for E16H : reported protein stability index = 3.87

Reported protein stability index of Q23F : 3.19

Per the record, R8L has protein stability index of 3.6

Just so you know, measured protein stability index for E6P came out at 4.32

Quick note, protein stability index for L7H landed at 5.2

// protein stability index value for R22L : 3.06

Per the records, this variant ( E15N ) has protein stability index equal to 5.27

T20M has a reported protein stability index of 2.92

Entry L11T , protein stability index reported as 5.33

Lab book: protein stability index of Q23S noted as 3.61

Lab note: E3H gave protein stability index of 3.08

get_value(item= I18S , readout=protein stability index) returns 5.45

Value of protein stability index reported for the variant T20K is 3.44

Per the record, V24E has protein stability index of 4.35

Consider E5L . Its measured protein stability index is 2.64

// protein stability index value for E4G : 3.23

protein stability index recorded for this variant, A9E , is 4.34

Per the records, this variant ( V24L ) has protein stability index equal to 3.78

Form field protein stability index, entry T12A : 3.35

Input A9K . Output protein stability index: 3.68

The measured protein stability index associated with R22G reads 3.79

variant T12V , protein stability index observed: 4.06

# variant Q23E ; its protein stability index = 3.82

Entry A9W ; protein stability index = 2.51

protein stability index recorded for this variant, E3G , is 3.52

For reference, reported protein stability index for E10D stands at 4.36

Documented protein stability index of K13N : 5.26

Sample E10I ; protein stability index observed: 2
